- protocol.details: protein stability index of a GFP-peptide fusion (GPS, HEK-293T) (PSI 1-6); higher = more stable;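 note: 24-mer peptide tiles fused after GFP, lentivirally expressed, FACS-sorted into six equal bins by GFP/DsRed ratio, decoded by Illumina sequencing, PSI is the read-weighted mean bin number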
- run.parameters: treatment: MLN4924 1 uM, 8 h; c terminus: a fixed tail appended
protein stability index vs 3: at or above is 1.0, below is 0.0.

- chain: "EGQARCLAHLGRHMEALEIAANLE [C8orf76]"
  category: 1.0

Is protein stability index at least 3? Consider HYAVNSQFTMGGPAISMASPMSIP [CARM1]
0.0

Entry LVENIIDIYKQECSSRPLQKGSHP [TRIM63] : is its protein stability index no less than 3?
0.0

I'd appreciate it if you could say whether QALRRLRPRTRKVKSVSPQGNSVD [NCF4] has protein stability index at least equal to 3.
1.0

Threshold query (protein stability index >= 3) on RDLKTQNILLDKHRMVVKIGDFGI [NEK8]
0.0

Can EDGFGEHPFYHCLVAEVPKEHWTP [SAT1] be said to have protein stability index at or above 3?
1.0

* * *

- protocol.details: protein stability index of a GFP-peptide fusion (GPS, HEK-293T) (PSI 1-6); higher = more stable
- run.parameters: treatment: DMSO; c terminus: a fixed tail appended
// label = Yes if protein stability index is not less than 3, otherwise No

Recorded results for 4 sequences are shown here.
- chain: "IVSHFQKLFDVPSLNGVYPRMNEV [CEP70]"
  category: "No"
- chain: "NDALSCEYECRRRMLMKRLDVTVQ [FAM98B]"
  category: "No"
- chain: "RGPPPRSGGPPPKRSAPSGPVRSS [RBMX]"
  category: "Yes"
- chain: "PLHNSGLLSLDPVQDKTPLYSQLL [MED27]"
  category: "No"

Would you say NMCMGRTSRGKLGGQDSFESIESY [ETS1] shows protein stability index at minimum 3?
Yes

Identify whether the reported protein stability index of the following sequence is 3 or greater: ITEALRPAGVGVVVEATHMCMVMR [GCH1]
No

Reported protein stability index at or above 3? RKFSRECEDQKQIKKPESFSKQIV [NEUROD6]
Yes

Entry DPKKLLTQYFVQENYLEYRQVPGS [MAGEA6] : is its protein stability index no less than 3?
Yes

Does AKVKGEKLDKKLKKMEQNKTAATR [ATF4] have a reported protein stability index of at least 3?
Yes

Item SLRDSGYFYDPIERDIEIGFLPWL [RSPH3] with protein stability index of 3 or above?
No

Given the entry VVGNWQYFFPVIFSKASDSLQLVF [MAGEA6] , answer whether its protein stability index meets or surpasses 3.
Yes

Check the entry YIPRDVDETGITVASLERFSTYTS [ZC3H15] : does protein stability index equal or exceed 3?
No

* * *

- protocol.details: protein stability index of a GFP-peptide fusion (GPS, HEK-293T) (PSI 1-6); higher = more stable
- run.parameters: treatment: MLN4924 1 uM, 8 h; c terminus: a fixed tail appended
Below, each entry is listed with its recorded protein stability index.
Lab note: write the figure by itself, no unit.

Indicate the recorded protein stability index value for this sequence: QGKYECVATNSAGTRYSAPANLYV [PTPRD]
2.89

Assign protein stability index to the following record: DFGACDGGLLTGNEKITMQNLNDR [KRT13]
4.53

State its protein stability index: NIIDIYKQESTRPEKKSDQPMCEE [TRIM55]
5.02

Tell me its protein stability index given TEITELRRTLQGLEIELQSQLSMK [KRT13] as the entry.
2.85

Look up and state reported protein stability index for CDKYPHESQLPEEWENNRESLIVF [CPXM2]
3.44

Read the entry GYRDYGHSRRHESYSRGYSYHDGY [RBMY1A1] and write its reported protein stability index.
2.61

Report measured protein stability index; entry is EEEMRSHYVAQTGILWLLMNNCFL [GAGE1]
3.2

* * *

- protocol.details: protein stability index of a GFP-peptide fusion (GPS, HEK-293T) (PSI 1-6); higher = more stable
- run.parameters: treatment: MLN4924 1 uM, 8 h; c terminus: a fixed tail appended
endpoint.name: protein stability index
Could you keep your reply to the number by itself?

- chain: "VLKTRFSYAFPKEFPYRMNHILEC [CCNC]"
  protein stability index: 2.2
- chain: "TKNKELTDEFRELRATVERMGLMK [FADS1]"
  protein stability index: 3.55
- chain: "RLQSSFWIVDKQHVYIGSAGLDWQ [PLD5]"
  protein stability index: 2.26
- chain: "VLKKLAQSRRTALATSPITVGDLG [YJU2B]"
  protein stability index: 2.58
- chain: "EGLLNTYQELLGLSFEQMTDAHVW [NLN]"
  protein stability index: 2.49
- chain: "IAGDEGTQIPADEDTQTDADSSAQ [TAF7L]"
  protein stability index: 5.45
- chain: "KYDPHTGHWTNVTPMATKRSGAGV [KLHL12]"
  protein stability index: 3.78
- chain: "DYEAGQHMEDPRRAGKMLMTLPLL [ESRRG]"
  protein stability index: 3.52
- chain: "AAVVHHFESFPAGSTLIFYKYCDH [TOR1AIP2]"
  protein stability index: 2.23
- chain: "AALHIDLCKATSPADALQYLLQFA [INTS4]"
  protein stability index: 2.29

Recall and state the measured protein stability index for TGVPGSPGHIGPPGPTGPKGISGH [EMID1] .
4.71

Please supply the value of reported protein stability index for the item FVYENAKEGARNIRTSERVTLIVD [BTBD10]
3.06

Please list protein stability index recorded for the sequence IYVHILKDTRMAEEYCHKHYDRNK [VPS39]
2

Please give the documented protein stability index of IQRIRSEIENVKKQASNLETAIAD [KRT71]
4.61

Indicate its recorded protein stability index; the sequence in question is KALGSDLDSSLASLVGNLGISGTT [SNAP91]
3.93

Check the records and state protein stability index for GAFQAQEKELVFDIDMTDYDDVRR [PRIM1]
4.71

* * *

- protocol.details: protein stability index of a GFP-peptide fusion (GPS, HEK-293T) (PSI 1-6); higher = more stable
- run.parameters: treatment: DMSO; c terminus: a fixed tail appended
endpoint.name: protein stability index
Reply with just the number.

Consider the reported protein stability index for these sequences:
- chain: "EARSLEHTLPVNRETLKRKVSGNR [ESR2]"
  endpoint.name: "protein stability index"
  measurement: 4.95
- chain: "GIKGLVRDSHGKGIPNAIISVEGI [CPXM2]"
  endpoint.name: "protein stability index"
  measurement: 2.8
- chain: "TEVITASEFHPHHCNLFVYSSSKG [PPP2R2C]"
  endpoint.name: "protein stability index"
  measurement: 2.73
- chain: "ELQKIVQAGDKDLDGQLDFEEFVH [SLC25A25]"
  endpoint.name: "protein stability index"
  measurement: 3.93
- chain: "TLKCLSHHVADAYTSSQKVSPIQI [TOR1AIP2]"
  endpoint.name: "protein stability index"
  measurement: 2.53
- chain: "TPLLIAARYGHLDVVEYLVDRCGA [FEM1A]"
  endpoint.name: "protein stability index"
  measurement: 2.05

Input NSPGAYRSHPDNAIPIKSWFSDPS [CTDNEP1] , output reported protein stability index.
3.37

Give protein stability index for the following sequence: SRQRQSRMEKGEPYMSIQPAEDPD [SMARCE1]
5.55

Please look at this sequence and report its protein stability index: IQRIRSEIENVKKQASNLETAIAD [KRT71]
4.42

Fill in reported protein stability index for this entry: ESRYTSDYFISYGIEHAQCVPPSE [ETS1]
3.22

For VIVQLHKLRHLDISRDRLSSYYKF [ZER1] , write its protein stability index.
2.76

Consider the sequence IEPRERAKFKRKYKVKLVEKRAFR [NOP53] . State its measured protein stability index.
2.87

Fill in reported protein stability index for this entry: VGRTGCFIVIDAMLERIKHEKTVD [PTPRD]
2.25

* * *

- protocol.details: protein stability index of a GFP-peptide fusion (GPS, HEK-293T) (PSI 1-6); higher = more stable
- run.parameters: treatment: DMSO; c terminus: a fixed tail appended
endpoint.name: protein stability index

Give a short answer stating reported protein stability index for IRVPSVPPVPCVPSVPCTPAPQVG [KRT36] .
3.45

Kindly indicate its recorded protein stability index. Item: TLPVSGNLLDVYSSQGVATPAITV [TFE3]
2.58

Indicate the recorded protein stability index value for this sequence: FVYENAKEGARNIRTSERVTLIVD [BTBD10]
2.55

* * *

- protocol.details: protein stability index of a GFP-peptide fusion (GPS, HEK-293T) (PSI 1-6); higher = more stable
- run.parameters: treatment: DMSO; c terminus: a fixed tail appended
Each entry below lists one item and its recorded protein stability index value.
Lab note: write the figure by itself, no unit.

- chain: "SLVKELLRMCSHGEGKINYYNFVR [EFHC1]"
  measurement: 2.31
- chain: "NFVRERTLDKRWRVRKEAMMGLAQ [PDS5B]"
  measurement: 2.8
- chain: "VISCLEQGEEPWVQVSPEFKDSAG [ZNF75A]"
  measurement: 4.59

For the sequence SPNYPSKYPPDRECIYIIEAAPRQ [NETO1] , report protein stability index.
2.58

Give reported protein stability index value for HSYCRMFLQRGADTNLGRLEDGQT [ASB7]
2.73

Input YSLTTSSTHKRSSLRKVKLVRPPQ [RAB40B] , output reported protein stability index.
3.42

Using the record for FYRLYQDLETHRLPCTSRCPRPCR [SCNN1D] , state its measured protein stability index.
2.8

Note down protein stability index recorded for NYECNLYTFLYLVCISTKTQCSEE [FEM1B]
3.11

For the sequence TKGVREVERALQLPREPGDSAQFT [FEM1A] , give its measured protein stability index value.
4.72

Using the record for FKPVVAAQKISKGADPKSVVCAFF [ZC3H15] , state its measured protein stability index.
2.32

Give protein stability index for the following sequence: HGLQEGKDLFTQRQNSAPARMLSS [CDC25A]
4.4
